The entries below come with measured Neutralization in ARPE-19 cells EC50 values attached.
- Assay Target: revertant virus (AD169 CMV with the pentameric gH complex restored)
- Experiment Notes: cell-based or functional assay
Write down the numeric answer in µg/mL and omit the unit.

Binder	Neutralization in ARPE-19 cells EC50 [µg/mL]
270.7 (antibody, V domains shown, rabbit hybridoma mAb; also called clone 270.7) VH: QSVEESGGRLVTPGTPLALTCTASRFSLSSNHMIWVRQAPGKGLEWIGYINYNNNPYYATWAKGRFTISRTSTTVALKITSPTTEDTATYFCARAAGNYYVGALNLWGPGTLVTISS VL: ELVMTQTPASVEVAVGGTVTIKCQASQSIGNLLAWYQQEPGQRPKLLIYDASTLASGVPSRFKGSGSGTEFTLTISGVQCADAATYYCQQGYMITNVENAFGGGTNVEIK	0.02
58.5 (antibody, V domains shown, rabbit hybridoma mAb (not the humanized version); also called clone 58.5) VH: QSLEESGGRLVTPGGSLTLTCTVSGFSLSAYSVSWVRQAPGKGLEWIGIIGHSGNTYYASWAKGRFTISKTSTTVDLKITSLTTEDTATYFCAREDYRYGDYGYYWDFNFWGPGTLVTISS VL: ELDLTQTASPVSAPVGGTVTINCQASQNIYSNLAWYQQKPGQPPKLLIYGASTLASGVSSRFKGSRSGTEFTLTISDLECADAATYYCQSYVYSSSTADTFGGGTEVVVK	0.02

Alright, here's another binder for you.
IN: Kindly indicate its recorded Neutralization in ARPE-19 cells EC50. Item: 223.4 (antibody, V domains shown, rabbit hybridoma mAb; also called clone 223.4) VH: QSLEESGGRLVTPGTPLTLTCTVSGFSLSAYSVSWVRQAPGKGLEWIGIIGHSGNTYYANWAKGRFTISKTSTTVDLKITSLTIEDTATYFCAREDYRYGDYGYYWDFNFWGPGTLVTISS VL: ELVMTQTPSPVSAPVGGTVTISCQASRSVYNENYVAWFQHRPGQPPKLLIYTTSILASGVPSRFKGRGSGTQFTLTISDVQCDDAATYYCAGDYDDNEENAFGGGTELEIL
OUT: 0.06
